System: UO-31 renal
Assay: NCI tumour cell line growth inhibition, 48 h
measured_property: TGI

Solved cases (2 shown):
| compound | tgt | TGI |
| --- | --- | --- |
| Clc1ccc(OCc2nnc3n2N=C(c2ccc(Cl)cc2Cl)CS3)cc1 | UO-31 renal | 34.5 µM |
| COc1cc2c(cc1OC)C(=O)/C(=C/c1cc(OC)c(OC)c(OC)c1)C2 | UO-31 renal | > 100 µM |

Reported TGI, compound COc1cccc(N(CN2C(=O)CCC2C(=O)O)C(C)=O)c1 (stereo not drawn) : ____
> 100 µM

* * *

What TGI was measured for each of the following?
System: SF-268 CNS
Assay: NCI tumour cell line growth inhibition, 48 h
Numbers only, in µM.

| smiles_text | recorded_value |
| --- | --- |
| Cc1c2ccncc2c(C)c2c1[nH]c1ccc(OCC(F)(F)F)cc12 | 3.06 |

Shifting focus to the molecule that follows.
Reported TGI, molecule Clc1ccc(OCc2nnc3n2N=C(c2ccc(Cl)cc2Cl)CS3)cc1 : ____
40.2

* * *

Tested on: SK-MEL-2 melanoma
Assay: NCI tumour cell line growth inhibition, 48 h; in the data active = GI50 below about 0.43 µM; inactive = the rest
Hi there, use one of these labels in your reply, thanks! active, inactive

Example entries begin here.
| molecule | tgt | qualitative_label |
| --- | --- | --- |
| Cc1ccc(Cl)c(Nc2ccccc2C(=O)O)c1Cl | SK-MEL-2 melanoma | inactive |
| Cn1c(/C=C/[N+](=O)[O-])cc2ccccc21 | SK-MEL-2 melanoma | inactive |
| COC1=CC(c2ccc[nH]2)=N/C1=C\c1[nH]c(C)c(C(=O)CCCCC(=O)Oc2ccc3c(c2)CCC2C3CC[C@]3(C)[C@@H](O)CC[C@@H]23)c1C (stereo partly drawn) | SK-MEL-2 melanoma | inactive |
| COc1cc([N+](=O)[O-])c(OC)cc1-c1nc2sc(Cl)cn2c1/C=N/NC1=NCCN1 | SK-MEL-2 melanoma | inactive |
| CCCCCCCCCCCCCCCCC(=O)O.CCCCCCCCCCCCCCCCCC(=O)O.CCCCCCCCCCCCCCCCCC(=O)O.CCCCCCCCCCCCCCCCCC(=O)O.CCCCCCCCCCCCCCCCCC(=O)O.CO[CH-]OC12COC1CC(O)C1(C)C(O)C(OC(C)O)C3=C(C)C(OC(=O)C(O)C([NH-])c4ccccc4)CC(O)(C(OC(=O)c4ccccc4)C21)C3(C)C.[Cu+].[Zn].[Zn].[Zn].[Zn].[Zn] (stereo not drawn) | SK-MEL-2 melanoma | active |

Hi, do you know how CN1C/C=C/CCOc2cccc(c2)-c2ccnc(n2)Nc2cccc(c2)C1 came out in this test?
active

Next molecule: O=C(Nc1ccc(/C=C/c2ccc(NC(=O)c3cc(S(=O)(=O)O)c4cccnc4c3O)cc2S(=O)(=O)O)c(S(=O)(=O)O)c1)c1cc(S(=O)(=O)O)c2cccnc2c1O
inactive

Next molecule: COc1cc(-c2cc(-c3cc(OC)c(OC)c(OC)c3)nc3nc(N)[nH]c(=O)c23)ccc1Oc1ccnc2cc(Cl)ccc12
inactive

Next molecule: O=C1OCC2=C1C(c1ccc(Cl)c(Cl)c1)c1cc3c(cc1N2CCO)CCC3 (stereo not drawn)
active

Next molecule: Clc1ccc(-c2cc(-c3ccccc3)nc(NCCNc3ccnc4cc(Cl)ccc34)n2)cc1
inactive

Next molecule: c1ccc2cc(C[n+]3ccn(CCCCCCCCCCn4cc[n+](Cc5ccc6ccccc6c5)c4)c3)ccc2c1
inactive

Next molecule: Cn1cc(C2=C(c3cn(C)c4ccccc34)C(=O)NC2=O)c2ccccc21
inactive
